The origin of these recorded values is patent US5278191A.

- method: Acute toxicity after oral administration
- testParameters: mouse, in vivo, mice, mortality over 15 days
Friendly reminder: LD50 at 360 h below 1000 mg/kg is yes (1), at or above is no (0).

Answered cases to consult:
- molecule: "Cc1ccc(C(NCC(N)=O)c2ccccc2)cc1 (centres unmarked) [Compound 3]"
  assignedClass: "no (0)"
- molecule: "NC(=O)CNC(c1ccccc1)c1ccc(Cl)cc1 (centres unmarked) [Compound 1]"
  assignedClass: "no (0)"
- molecule: "Cc1ccccc1C(NCC(N)=O)c1ccccc1 (centres unmarked) [Compound 4]"
  assignedClass: "yes (1)"
- molecule: "NC(=O)CNC(c1ccc(F)cc1)c1ccccc1F (centres unmarked) [Compound 11]"
  assignedClass: "yes (1)"
- molecule: "NC(=O)CNC(c1ccccc1)c1ccc(Br)cc1 (centres unmarked) [Compound 10]"
  assignedClass: "no (0)"

# check: LD50 at 360 h < 1000 mg/kg for Cc1ccc(C(NCC(N)=O)c2ccccc2)cc1C (centres unmarked) [Compound 6]
no (0)

# check: LD50 at 360 h < 1000 mg/kg for Cc1cccc(C(NCC(N)=O)c2ccccc2)c1 (centres unmarked) [Compound 5]
no (0)
